# Tested on: proteinase enzyme (trypsin)
# procedure_text: Proteinase enzyme inhibition (anti-inflammatory)
# Assay type: biochemical
# condition_summary: equal concentrations (1000 µg/mL); mean ± SE
Inhibition (%) Proteinase overview

compound	Inhibition (%) Proteinase
COc1ccc(Nc2n[nH]c(N=Cc3c(C)nn(-c4ccccc4)c3Cl)c2C(=O)Nc2ccccc2)cc1 [6d]	13.58
Cc1nn(-c2ccccc2)c(Cl)c1C=Nc1[nH]nc(Nc2ccccc2)c1C(=O)Nc1ccccc1 [6a]	13.33
Cc1ccc(NC(=O)c2c(Nc3ccccc3)n[nH]c2N=Cc2c(C)nn(-c3ccccc3)c2Cl)cc1 [6b]	15.60
Cc1ccc(NC(=O)c2c(Nc3ccccc3)n[nH]c2N=Cc2c(C)n(C)n(-c3ccccc3)c2=O)cc1 [7b]	13.35
COc1ccc(Nc2n[nH]c(N=Cc3ccc(N4CCCCC4)cc3)c2C(=O)Nc2ccc(Cl)cc2)cc1 [5f]	23.72
COc1ccc(Nc2n[nH]c(N=Cc3c(C)n(C)n(-c4ccccc4)c3=O)c2C(=O)Nc2ccccc2)cc1 [7d]	13.56
COc1ccc(Nc2n[nH]c(/N=C/c3ccc(N4CCCCC4)cc3)c2C(=O)Nc2ccccc2)cc1 [5d]	24.17
COc1ccc(Nc2n[nH]c(N=Cc3c(C)nn(-c4ccccc4)c3Cl)c2C(=O)Nc2ccc(C)cc2)cc1 [6e]	13.63
Cc1ccc(NC(=O)c2c(Nc3ccccc3)n[nH]c2/N=C/c2ccc(N3CCCCC3)cc2)cc1 [5b]	6.81
O=C(Nc1ccccc1)c1c(Nc2ccccc2)n[nH]c1N=Cc1ccc(N2CCCCC2)cc1 [5a]	23.33
O=C(Nc1ccc(Cl)cc1)c1c(Nc2ccccc2)n[nH]c1/N=C/c1ccc(N2CCCCC2)cc1 [5c]	13.40
COc1ccc(Nc2n[nH]c(N=Cc3c(C)nn(-c4ccccc4)c3Cl)c2C(=O)Nc2ccc(Cl)cc2)cc1 [6f]	13.60
Cc1c(C=Nc2[nH]nc(Nc3ccccc3)c2C(=O)Nc2ccc(Cl)cc2)c(=O)n(-c2ccccc2)n1C [7c]	13.38
COc1ccc(Nc2n[nH]c(N=Cc3c(C)n(C)n(-c4ccccc4)c3=O)c2C(=O)Nc2ccc(C)cc2)cc1 [7e]	4.81

----------
Inhibition (%) α-Amylase overview
# Test system: α-amylase
# procedure_text: α-Amylase inhibition (anti-diabetic)
# Type: biochemical
# condition_summary: equal concentrations (1000 µg/mL); mean ± SE
metric_name: Inhibition (%) α-Amylase

Cc1nn(-c2ccccc2)c(Cl)c1C=Nc1[nH]nc(Nc2ccccc2)c1C(=O)Nc1ccc(Cl)cc1 20.92
O=C(Nc1ccc(Cl)cc1)c1c(Nc2ccccc2)n[nH]c1/N=C/c1ccc(N2CCCCC2)cc1 17.94
Cc1ccc(NC(=O)c2c(Nc3ccccc3)n[nH]c2N=Cc2c(C)n(C)n(-c3ccccc3)c2=O)cc1 17.88
COc1ccc(Nc2n[nH]c(N=Cc3c(C)nn(-c4ccccc4)c3Cl)c2C(=O)Nc2ccc(C)cc2)cc1 18.25
COc1ccc(Nc2n[nH]c(N=Cc3c(C)n(C)n(-c4ccccc4)c3=O)c2C(=O)Nc2ccc(C)cc2)cc1 9.38
COc1ccc(Nc2n[nH]c(/N=C/c3ccc(N4CCCCC4)cc3)c2C(=O)Nc2ccc(C)cc2)cc1 31.83
COc1ccc(Nc2n[nH]c(N=Cc3c(C)n(C)n(-c4ccccc4)c3=O)c2C(=O)Nc2ccc(Cl)cc2)cc1 32.31
Cc1ccc(NC(=O)c2c(Nc3ccccc3)n[nH]c2/N=C/c2ccc(N3CCCCC3)cc2)cc1 9.12
COc1ccc(Nc2n[nH]c(/N=C/c3ccc(N4CCCCC4)cc3)c2C(=O)Nc2ccccc2)cc1 32.37
O=C(Nc1ccccc1)c1c(Nc2ccccc2)n[nH]c1N=Cc1ccc(N2CCCCC2)cc1 31.24
COc1ccc(Nc2n[nH]c(N=Cc3c(C)nn(-c4ccccc4)c3Cl)c2C(=O)Nc2ccc(Cl)cc2)cc1 18.22
COc1ccc(Nc2n[nH]c(N=Cc3c(C)nn(-c4ccccc4)c3Cl)c2C(=O)Nc2ccccc2)cc1 18.19
COc1ccc(Nc2n[nH]c(N=Cc3ccc(N4CCCCC4)cc3)c2C(=O)Nc2ccc(Cl)cc2)cc1 31.77
Cc1c(C=Nc2[nH]nc(Nc3ccccc3)c2C(=O)Nc2ccc(Cl)cc2)c(=O)n(-c2ccccc2)n1C 17.91
Cc1c(C=Nc2[nH]nc(Nc3ccccc3)c2C(=O)Nc2ccccc2)c(=O)n(-c2ccccc2)n1C 31.30
COc1ccc(Nc2n[nH]c(N=Cc3c(C)n(C)n(-c4ccccc4)c3=O)c2C(=O)Nc2ccccc2)cc1 18.16

----------
# Tested on: human lung cancer (A549) cell line
# procedure_text: Cytotoxic activity, MTT assay, lung (A549)
# condition_summary: Conc.: 5a 26.91, 5d 25.27, 5e 24.58, 5f 23.63, 7a 25.43, 7f 22.48, DOX 23.00
metric_name: Viability %, A549, 2nd concentration (%)

COc1ccc(Nc2n[nH]c(N=Cc3c(C)n(C)n(-c4ccccc4)c3=O)c2C(=O)Nc2ccc(Cl)cc2)cc1 86.06
O=C(Nc1ccccc1)c1c(Nc2ccccc2)n[nH]c1N=Cc1ccc(N2CCCCC2)cc1 87.31
COc1ccc(Nc2n[nH]c(/N=C/c3ccc(N4CCCCC4)cc3)c2C(=O)Nc2ccc(C)cc2)cc1 79.91
COc1ccc(Nc2n[nH]c(N=Cc3ccc(N4CCCCC4)cc3)c2C(=O)Nc2ccc(Cl)cc2)cc1 87.31
Cc1c(C=Nc2[nH]nc(Nc3ccccc3)c2C(=O)Nc2ccccc2)c(=O)n(-c2ccccc2)n1C 79.91
COc1ccc(Nc2n[nH]c(/N=C/c3ccc(N4CCCCC4)cc3)c2C(=O)Nc2ccccc2)cc1 79.41

----------
Inhibition (%) α-Amylase overview
# System: α-amylase
# procedure_text: α-Amylase inhibition (anti-diabetic)
# Format: biochemical
# condition_summary: equal concentrations (1000 µg/mL); mean ± SE

compound	Inhibition (%) α-Amylase
Cc1nn(-c2ccccc2)c(Cl)c1C=Nc1[nH]nc(Nc2ccccc2)c1C(=O)Nc1ccccc1	17.85 ± 0.03%
Cc1ccc(NC(=O)c2c(Nc3ccccc3)n[nH]c2N=Cc2c(C)nn(-c3ccccc3)c2Cl)cc1	20.89 ± 0.03%
C[C@H]1O[C@H](O[C@H]2[C@H](O)[C@@H](O)[C@@H](O[C@H]3[C@H](O)[C@@H](O)C(O)O[C@@H]3CO)O[C@@H]2CO)[C@H](O)[C@@H](O)[C@@H]1N[C@H]1C=C(CO)[C@@H](O)[C@H](O)[C@H]1O (stereo partly drawn) [Acarbose, reference compound]	76.58 ± 0.01%

----------
# procedure_text: Cytotoxic activity, MTT assay, normal lung (WI-38)
# Assay type: cell-based
# condition_summary: human, WI-38 normal lung cells, Conc.: 5a 215.26, 5d 202.19, 5e 196.61, 5f 189.03, 7a 203.44, 7f 179.85, DOX 183.99; read-out: Viability %, WI-38, 5th concentration
metric_name: viability at 48 h

Cc1c(C=Nc2[nH]nc(Nc3ccccc3)c2C(=O)Nc2ccccc2)c(=O)n(-c2ccccc2)n1C 62.7%
COc1ccc(Nc2n[nH]c(/N=C/c3ccc(N4CCCCC4)cc3)c2C(=O)Nc2ccc(C)cc2)cc1 38.3%
COc1ccc(Nc2n[nH]c(N=Cc3c(C)n(C)n(-c4ccccc4)c3=O)c2C(=O)Nc2ccc(Cl)cc2)cc1 59.2%
COc1ccc(Nc2n[nH]c(/N=C/c3ccc(N4CCCCC4)cc3)c2C(=O)Nc2ccccc2)cc1 62.7%
COc1ccc(Nc2n[nH]c(N=Cc3ccc(N4CCCCC4)cc3)c2C(=O)Nc2ccc(Cl)cc2)cc1 44.8%
O=C(Nc1ccccc1)c1c(Nc2ccccc2)n[nH]c1N=Cc1ccc(N2CCCCC2)cc1 38.3%

----------
# Tested on: Bcl-2
# procedure_text: Bcl-2 ELISA in treated Caco-2 cells
# Format: cell-based, human
# condition_summary: DMSO control 7.99 ± 0.08
metric_name: Bcl-2 level, Colon (Caco-2)

COc1ccc(Nc2n[nH]c(N=Cc3c(C)n(C)n(-c4ccccc4)c3=O)c2C(=O)Nc2ccc(Cl)cc2)cc1 2.80 ± 0.03 ng/mL
O=C(Nc1ccccc1)c1c(Nc2ccccc2)n[nH]c1N=Cc1ccc(N2CCCCC2)cc1 5.33 ± 0.05 ng/mL
COc1ccc(Nc2n[nH]c(N=Cc3ccc(N4CCCCC4)cc3)c2C(=O)Nc2ccc(Cl)cc2)cc1 2.91 ± 0.03 ng/mL
COc1ccc(Nc2n[nH]c(/N=C/c3ccc(N4CCCCC4)cc3)c2C(=O)Nc2ccccc2)cc1 3.20 ± 0.03 ng/mL
COc1ccc(Nc2n[nH]c(/N=C/c3ccc(N4CCCCC4)cc3)c2C(=O)Nc2ccc(C)cc2)cc1 2.46 ± 0.02 ng/mL
Cc1c(C=Nc2[nH]nc(Nc3ccccc3)c2C(=O)Nc2ccccc2)c(=O)n(-c2ccccc2)n1C 2.13 ± 0.02 ng/mL

----------
# procedure_text: Cytotoxic activity, MTT assay, normal lung (WI-38)
# Assay type: cell-based
# condition_summary: human, WI-38 normal lung cells; 48 h, MTT; mean ± SE; read-out: Cytotoxic activity IC50, Normal Lung (WI-38)
metric_name: IC50 at 48 h (µM)

O=C(Nc1ccccc1)c1c(Nc2ccccc2)n[nH]c1N=Cc1ccc(N2CCCCC2)cc1 442
COc1ccc(Nc2n[nH]c(/N=C/c3ccc(N4CCCCC4)cc3)c2C(=O)Nc2ccccc2)cc1 732
COc1ccc(Nc2n[nH]c(N=Cc3ccc(N4CCCCC4)cc3)c2C(=O)Nc2ccc(Cl)cc2)cc1 493
Cc1c(C=Nc2[nH]nc(Nc3ccccc3)c2C(=O)Nc2ccccc2)c(=O)n(-c2ccccc2)n1C 736
COc1ccc(Nc2n[nH]c(N=Cc3c(C)n(C)n(-c4ccccc4)c3=O)c2C(=O)Nc2ccc(Cl)cc2)cc1 543
COc1ccc(Nc2n[nH]c(/N=C/c3ccc(N4CCCCC4)cc3)c2C(=O)Nc2ccc(C)cc2)cc1 648
